Reference source: PubChem BioAssay (NCI)

Tested on: SN12C renal
Assay: NCI tumour cell line growth inhibition, 48 h
Below, each entry is listed alongside its reported TGI.

Compound | TGI
Clc1cc2nc[nH]c2cc1Cl | > 100 µM
[N-]=[N+]=CC(=O)OC1CCc2ccccc21 (stereo unspecified) | > 100 µM
CN(Cc1ccccc1)c1ncnc2ccc(Br)cc12 | 29.6 µM
COc1ccc2c(c1)O/C(=C\c1ccc([N+](=O)[O-])o1)C2=O | > 100 µM
CC[C@]1(Cc2ccc(OC)c(OC)c2)C=[N+]([O-])O[C@H](OC2CCCCC2c2ccccc2)[C@@H]1OC(C)=O (stereo partly specified) | > 100 µM
O=C1CC2(CCN(CC3COc4ccccc4O3)CC2)C(=O)N1N1CCCCCC1 (stereo unspecified) | > 100 µM

* * *

Tested on: A498 renal
Assay: NCI tumour cell line growth inhibition, 48 h
Quantity name: TGI (µM)

Molecule | Target or system | Limit operator | Reported value
N=C(N)SC(c1ccccc1)c1ccccc1 | A498 renal | = | 36.6
CC(=O)Oc1c(C)cc2c(c1C)C(C)(C)CN2C(=O)C(C)(C)C | A498 renal | > | 100
CCOC(=O)C1C(c2ccco2)C2(C#N)C(=N)OC1(C)C2(C#N)C#N (stereo not given) | A498 renal | > | 100
Clc1cc2nc[nH]c2cc1Cl | A498 renal | > | 100
O=C(NCCN1CCOCC1)Nc1nc2ccc(Sc3nnc4ccc(-c5ccc(F)cc5)nn34)cc2s1 | A498 renal | > | 100
Cc1cc2nn(C3CCCCO3)nc2cc1C (stereo not given) | A498 renal | > | 100
CCCCCCN(CCCCCC)C1=CC(=O)C(=O)c2ccccc21 | A498 renal | = | 41.6
CN(C)C=O.CN(C)C=O.CN1C(C(=O)Nc2ccccn2)=C([O-])c2ccccc2S1(=O)=O.CN1C(C(=O)Nc2ccccn2)=C([O-])c2ccccc2S1(=O)=O.[Cu+2] | A498 renal | = | 65.3
OCCNC(=S)Nc1ccc(-c2nc(N3C[C@H]4CC[C@@H](C3)O4)c3cccn3n2)cc1 | A498 renal | = | 0.0307
CCOc1cccc2sc(N)nc12 | A498 renal | > | 100

* * *

Tested on: HS 578T breast
Experiment: NCI tumour cell line growth inhibition, 48 h
Below, each entry is listed alongside its reported TGI.

Molecule | TGI
NS(=O)(=O)c1ccc(C(=O)O)cc1 | > 100 µM
c1ccc(C2(c3ccccc3)S/C(=C3/SC(c4ccccc4)(c4ccccc4)c4ccccc43)c3ccccc32)cc1 | > 100 µM
CC1OC1P(=O)(O)O (stereo not given) | > 100 µM
N=C(N)SC(c1ccccc1)c1ccccc1 | > 100 µM
COc1ccc(/C=C(/C(=O)N2CCN(c3ccc(C)cc3)CC2)c2cc(OC)c(OC)c(OC)c2)cc1N | > 100 µM
Cc1cccc(C)c1NC(=O)C(=O)C(c1ccccc1Cl)S(=O)(=O)Cc1ccccc1Cl (stereo not given) | > 100 µM
Nc1c(C(=O)c2cccc(C(O)(CO)CO)c2)cnn1-c1ccc(F)cc1 | > 25 µM
Cc1ccccc1NC(=O)N/C(N)=N/c1nc(C)c(C)s1 | > 100 µM
O=C1CC2(CCN(CC3COc4ccccc4O3)CC2)C(=O)N1N1CCCCCC1 (stereo not given) | > 100 µM
Cc1cc(C)c(-n2c(C)c(C)c(C#N)c2N)c(C)c1 | > 100 µM
CC/C=C\C[C@H](O)C/C=C1/C(=O)C=C[C@@H]1C/C=C\CCCC(=O)OCCS(=O)(=O)c1ccccc1 | > 100 µM
Nc1nc(Cl)cc(NCC2(CO)CC(CCCc3ccccc3)C2)n1 (stereo not given) | > 100 µM
Cc1cc(NCCCNc2ccnc3cc(Cl)ccc23)nc(Nc2ccc(C(=O)N3CCCCC3)cc2)n1 | 6.38 µM
CCCCCCCCCCCCCCC(C(=O)[O-])[n+]1ccccc1 (stereo not given) | > 100 µM
O=C1CC(C(O)C(O)C(O)CO)CC(=O)N1 (stereo not given) | > 100 µM
COc1ccc(C(=O)OC2C(OC3C(O)COC(O[C@H]4C[C@H]5[C@@H]6CC=C7C[C@@H](O)CC[C@]7(C)[C@H]6CC[C@]5(C)[C@H]4[C@H](C)C(=O)CCC(C)C)C3OC(=O)C(C)C)OCC(O)C2O)cc1 (stereo not given in full) | 0.0441 µM
Cc1cccc(-c2cccc(COCc3cccc(-c4cccc(CO)n4)n3)n2)n1 | > 50 µM
O=[N+]([O-])c1ccc(CSc2c3ccccc3nc3ccccc23)cc1 | 11.3 µM
C=C(C)[C@@H]1CC[C@]2(C(=O)N3CCN(C)CC3)CC[C@]3(C)[C@H](CC[C@@H]4[C@@]5(C)C/C(=C/c6ccncc6)[C@H](O)C(C)(C)[C@@H]5CC[C@]43C)[C@@H]12 | > 100 µM
Cc1cc2nn(C3CCCCO3)nc2cc1C (stereo not given) | > 100 µM
